# growth inhibition listing for each entry below
# Test Method Notes: NCI Yeast Anticancer Drug Screen. Data for the bub3 strain (AID 167)
# Measurement Setup: S. cerevisiae bub3 mutant strain, at 50.0 µM, active compounds read high
About 79,000 compounds went through this panel and 15% of them were active in at least one assay; those are over-represented in the sample as a whole.
Your answer is read as %, so omit the unit and give the number.

Req: // returns reported growth inhibition for input O=c1n(-c2ccccc2)c(=O)n2n1C1C3C4C3C2C2(F)C4C12 (centres undefined)
Resp: 7.75

Req: Quick one: CCN(CC)CCNc1nc(N)c(C#N)c(C#N)c1C#N
Resp: -8.3

Req: Quick one: COC(=O)C1(c2ccccc2)Cc2ccccc2-c2ccccc21 (centres undefined)
Resp: 26.1

###

# Test Method Notes: NCI Yeast Anticancer Drug Screen. Data for the mec2-1 strain (AID 157)
# Measurement Setup: S. cerevisiae mec2-1 strain, at 50.0 µM, active compounds read high
The panel holds about 79,000 compounds, 15% with a hit somewhere; the sample as a whole holds those more often. Active and inactive are the calls of the source. No stated cut-off is given here; in the data, active means growth inhibition above about 70%; inactive means the rest.
Experimental Endpoint: growth inhibition

# annotated cases, reported growth inhibition shown
{"Compound": "S=C1CC(c2ccccc2)Sc2ccccc2N1 (configuration not stated)", "Assay Value": "1.85% (inactive)"}
{"Compound": "CCCC(=O)c1c(NOC2OCC(OC(C)=O)C(OC(C)=O)C2OC(C)=O)nc(OC)n(C)c1=O (configuration not stated)", "Assay Value": "3.1% (inactive)"}
{"Compound": "C=C(Cl)C(Cl)(CBr)CCC(Cl)C(C)C (configuration not stated)", "Assay Value": "15.5% (inactive)"}
{"Compound": "C/C=C/C(=O)OCCC[N+](C)(C)C", "Assay Value": "12.3% (inactive)"}
{"Compound": "Cc1nc(-c2ccccc2)[nH]c(=O)c1Cc1cc2c(cc1O)OCC2", "Assay Value": "6.6% (inactive)"}

Req: // returns reported growth inhibition for input CC(C)C(=O)OCc1ccc(Cl)cc1
Resp: 38.3% (inactive)

Req: Quick one: CCOC(=O)/C=C/c1ccc(F)cc1
Resp: 2% (inactive)

###

# growth inhibition listing for each entry below
# Test Method Notes: NCI Yeast Anticancer Drug Screen. Data for the bub3 strain (AID 167)
# Measurement Setup: S. cerevisiae bub3 mutant strain, at 50.0 µM, active compounds read high
# Experimental: Growth inhibition of yeast strains with defined genetic alterations is measured as a screen for potential anti-cancer activity. Selected strains with alterations in DNA damage repair or cell cycle control were exposed to compounds and growth inhibition was measured relative to vehicle treated controls. The strain used in this assay is bub3
About 79,000 compounds went through this panel and 15% of them were active in at least one assay; those are over-represented in the sample as a whole.
Your answer is read as %, so omit the unit and give the number.

{"Molecule": "CCCC1(C(=O)O)NC(=O)NC1=O (configuration not stated)", "Unit Abbreviation": "%", "growth inhibition": -1.1}
{"Molecule": "C/C(=N\\NS(=O)(=O)c1ccc([N+](=O)[O-])cc1)c1ccc[n+]([O-])n1", "Unit Abbreviation": "%", "growth inhibition": 2.15}
{"Molecule": "CCn1nc(C(=O)O)c(=O)c2cc3c(cc21)OCO3", "Unit Abbreviation": "%", "growth inhibition": -3.9}

Req: // returns reported growth inhibition for input O[C@@H]1C=C(c2ccccc2)[C@H](c2ccccc2)C1
Resp: -19.8

Req: Quick one: CNC(=O)Nc1ccc(Cl)cc1C(=O)O
Resp: -13.7

Req: Quick one: CC(NCCNC(C)c1ccccc1)c1ccccc1 (configuration not stated)
Resp: 1.85

Req: Quick one: CC/C(=N\NC(=O)c1ccncc1)c1ccc(Cl)cc1
Resp: 2.9

Source: PubChem BioAssay (NCI)
